target: Bifunctional epoxide hydrolase 2 (Homo sapiens) (UniProt P34913); assay: sEH enzyme activity blockers – biochemical, human sEH, primary screen (AID 707); conditions: recombinant human sEH enzymatic activity assay; at 2 µM
Sequence (P34913 whole entry, looked up): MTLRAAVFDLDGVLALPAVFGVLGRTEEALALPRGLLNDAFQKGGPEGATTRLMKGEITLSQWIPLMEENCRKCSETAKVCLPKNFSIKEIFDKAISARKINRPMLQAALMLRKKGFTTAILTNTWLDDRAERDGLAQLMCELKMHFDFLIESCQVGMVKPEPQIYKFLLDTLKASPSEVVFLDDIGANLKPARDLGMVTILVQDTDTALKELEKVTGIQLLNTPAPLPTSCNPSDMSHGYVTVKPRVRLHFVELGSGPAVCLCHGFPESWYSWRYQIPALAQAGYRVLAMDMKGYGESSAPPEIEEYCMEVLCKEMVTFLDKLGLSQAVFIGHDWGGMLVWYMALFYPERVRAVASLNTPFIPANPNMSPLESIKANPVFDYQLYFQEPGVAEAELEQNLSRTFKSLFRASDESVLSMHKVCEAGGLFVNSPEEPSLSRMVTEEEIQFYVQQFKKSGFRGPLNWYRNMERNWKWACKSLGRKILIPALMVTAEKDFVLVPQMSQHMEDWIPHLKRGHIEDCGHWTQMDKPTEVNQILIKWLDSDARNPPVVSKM
Hit rate of the full screen: of about 91,000 compounds, about 310 (0.34%) were called active. Cut-off read from the data, not from the text of the source: active = inhibition above about 80%; inactive = the rest. This is one part of a sample in which actives are shown more often than they occur.
Labels: active, inactive

given_smiles=CC(C)NC(=O)NC(=O)COC(=O)c1ccc(NC(=O)CC#N)cc1 class_assignment=inactive
given_smiles=CC(=O)c1cccc(NC(=O)Nc2ccc(C)cc2)c1 class_assignment=inactive
given_smiles=CC(C)CNC(=S)NNC(=O)c1ccccc1OC(F)F class_assignment=inactive
given_smiles=Cc1cccc(-n2ncc(C#N)c2-n2cccc2)c1 class_assignment=inactive
given_smiles=CC(C)N(c1ccccc1)c1ncnc(NCCC(=O)O)c1[N+](=O)[O-] class_assignment=inactive
given_smiles=CC(C)NS(=O)(=O)c1ccc(NC(=O)C2CCCCC2)cc1 class_assignment=inactive
given_smiles=O=C(NC1CCCCC1)c1cc([N+](=O)[O-])ccc1N1CCOCC1 class_assignment=inactive
given_smiles=Cc1cccc(NC(=O)Nc2cccc(Oc3c(F)c(F)c(F)c(F)c3F)c2)c1 class_assignment=active
given_smiles=O=C(ON=C1CCN(S(=O)(=O)c2ccccc2)CC1)c1ccc(Cl)cc1 class_assignment=inactive
given_smiles=Cc1ccc(NC(=S)Nc2ncccc2C)c(C)c1 class_assignment=inactive
given_smiles=Cc1ccccc1C(=O)N1CCC(C(=O)Nc2ccc(S(=O)(=O)N(C)C(C)C)cc2)CC1 class_assignment=active

---

molecular target: Bifunctional epoxide hydrolase 2 (Homo sapiens) (UniProt P34913); assay: sEH enzyme activity blockers – biochemical, human sEH, primary screen (AID 707); settings: recombinant human sEH enzymatic activity assay; at 2 µM; hits give high values
Hit rate of the full screen: of about 91,000 compounds, about 310 (0.34%) were called active. What follows is part of a selection rich in actives, with near analogues and random picks from the rest.
Measurement name: inhibition (%)

molecule="CC(Cc1cccs1)NC(=O)NC1CCCCC1 (configuration not stated)" value_unit=% reported=92.6
molecule=CCOc1ccc(Nc2nc(Cc3nnc(SCC(=O)NC4CCCC4)n3C)cs2)cc1 value_unit=% reported=10.9
molecule=Cc1cc([N+](=O)[O-])c(NC2CCCCC2)c([N+](=O)[O-])c1 value_unit=% reported=-4.6
molecule=CC(C)c1ccc(/C=C/C(=O)NNC(=O)c2cccnc2)cc1 value_unit=% reported=-2.9
molecule=O=C(NCCSCc1ccccc1)c1ccc(Cl)c(S(=O)(=O)N2CCOCC2)c1 value_unit=% reported=78.5
molecule="Cc1ccc(-n2c(C)cc(/C=C(\\C#N)C(=O)NCC3CCCO3)c2C)cc1 (configuration not stated)" value_unit=% reported=10.8
molecule="CC1Cc2ccccc2N1CC(=O)Nc1ccc2c(c1)OC(F)(F)O2 (configuration not stated)" value_unit=% reported=49.2
molecule=O=C(CN1C(=O)NC(Cc2ccccc2)(Cc2ccccc2)C1=O)NCC1CCCCC1 value_unit=% reported=-8.9
molecule=COc1ccc(-c2cc(C(=O)n3cnc4ccccc43)c3ccccc3n2)cc1 value_unit=% reported=-13.6
molecule=Cc1ccccc1OC/C(O)=C(\C#N)c1nc2ccccc2[nH]1 value_unit=% reported=-13.4
molecule=Nc1nc(Br)c2ccccc2c1-c1ccc(F)cc1 value_unit=% reported=4.8
molecule=c1ccc2c(CSCc3nc4ccccc4[nH]3)cccc2c1 value_unit=% reported=10.5
molecule="CCOC(=O)C1=C(CN2CCc3ccccc32)NC(=O)NC1c1cc(C)ccc1C (configuration not stated)" value_unit=% reported=-4.9
molecule=CS(=O)(=O)N(CC(=O)Nc1ccc(F)cc1F)c1cccc([N+](=O)[O-])c1 value_unit=% reported=1.3
molecule="Cc1ccsc1C(C(=O)NC1CCCCC1)N(C(=O)Cc1cccs1)C1CC1 (configuration not stated)" value_unit=% reported=5.3
molecule=Cc1occc1C(=O)NNC(=S)NCC(C)C value_unit=% reported=-18
molecule=C=CCNc1cnn(-c2ccc(C)cc2)c(=O)c1Cl value_unit=% reported=1.9
molecule=O=C(CN1CCN(S(=O)(=O)c2ccc(Cl)s2)CC1)NCc1ccc(Cl)cc1 value_unit=% reported=-1.1
molecule=O=C(c1ccc(F)cc1)c1c[nH]c(C(=O)NCc2cccnc2)c1 value_unit=% reported=-11.2
molecule=O=C(CCc1ccc(S(=O)(=O)N2CCOCC2)cc1)Nc1ccc2ccccc2c1 value_unit=% reported=21.6
molecule="COC(=O)C(NC(=O)c1ccc(OC)cc1)(Nc1ncc(S(=O)(=O)c2ccc([N+](=O)[O-])cc2)s1)C(F)(F)F (configuration not stated)" value_unit=% reported=-1.7
molecule=Cc1ccccc1CSCCNC(=O)c1ccc(N(C)S(=O)(=O)c2ccccc2)cc1 value_unit=% reported=36.1

---

target: Bifunctional epoxide hydrolase 2 (Homo sapiens) (UniProt P34913); assay: sEH enzyme activity blockers – biochemical, human sEH, primary screen (AID 707); settings: recombinant human sEH enzymatic activity assay; at 2 µM; hits give high values
About 310 (0.34%) of roughly 91,000 compounds were called active. The full list was thinned out, with actives kept by preference.
Measurement name: inhibition (%)

molecule="CN(C)Cc1ccccc1C1(O)c2ccccc2CSc2ccccc21 (configuration not stated)" target="Bifunctional epoxide hydrolase 2 (Homo sapiens) (UniProt P34913)" value_unit=% reported=5.7
molecule=Cc1ccc(-c2nnc(-n3nnc4ccccc43)c3ccccc23)cc1 target="Bifunctional epoxide hydrolase 2 (Homo sapiens) (UniProt P34913)" value_unit=% reported=-3.9
molecule=O=C(Nc1ccn(Cc2ccccc2F)n1)c1ccc(COc2ccc(Cl)cc2Cl)o1 target="Bifunctional epoxide hydrolase 2 (Homo sapiens) (UniProt P34913)" value_unit=% reported=1.6
molecule=Cc1cc(C(=O)OCC(=O)Nc2ccc(F)c(F)c2)c(C)o1 target="Bifunctional epoxide hydrolase 2 (Homo sapiens) (UniProt P34913)" value_unit=% reported=7.9
molecule=CCCCNC(=O)c1onc(CSc2cccc(OC)c2)c1C(=O)O target="Bifunctional epoxide hydrolase 2 (Homo sapiens) (UniProt P34913)" value_unit=% reported=-10.5
molecule="CCOc1ccc(C(CCc2ccccc2)NC(=O)c2ccc(OC)c(OC)c2)cc1OCC (configuration not stated)" target="Bifunctional epoxide hydrolase 2 (Homo sapiens) (UniProt P34913)" value_unit=% reported=-23.6
molecule=Cc1cccc(NC(=O)c2ccc(OCC(=O)NCc3ccccc3)cc2)c1C target="Bifunctional epoxide hydrolase 2 (Homo sapiens) (UniProt P34913)" value_unit=% reported=3.8
molecule=COc1cnc(SCc2ccc(Cl)c(Cl)c2)nc1Cl target="Bifunctional epoxide hydrolase 2 (Homo sapiens) (UniProt P34913)" value_unit=% reported=-5.2
molecule=Cc1cccc(NC(=S)Nc2ccc(Br)cc2)c1 target="Bifunctional epoxide hydrolase 2 (Homo sapiens) (UniProt P34913)" value_unit=% reported=17.8
molecule=Cc1cc(Nc2ccccc2)nc(N)n1 target="Bifunctional epoxide hydrolase 2 (Homo sapiens) (UniProt P34913)" value_unit=% reported=3
molecule=O=C(CSCc1ccc([N+](=O)[O-])cc1)Nc1cccc(C(=O)Nc2ccccc2C(=O)O)c1 target="Bifunctional epoxide hydrolase 2 (Homo sapiens) (UniProt P34913)" value_unit=% reported=-3.9
molecule=Cc1cc(OC(=O)c2c(Cl)cccc2Cl)nc(C)n1 target="Bifunctional epoxide hydrolase 2 (Homo sapiens) (UniProt P34913)" value_unit=% reported=-21.2

---

Below, each of the molecules is paired with its reported inhibition value.
target: Bifunctional epoxide hydrolase 2 (Homo sapiens) (UniProt P34913); assay: sEH enzyme activity blockers – biochemical, human sEH, primary screen (AID 707); conditions: recombinant human sEH enzymatic activity assay; at 2 µM; hits give high values
Among all 91,000 compounds or so, about 310 (0.34%) were called active. The entries come from a sample that favours actives as a whole.
Measurement name: inhibition (%)

molecule=CCC(=O)Nc1ccc(C(=O)Nc2cc(C)on2)cc1 value_unit=% reported=-8.6
molecule=COc1ccc(C(=O)NCCc2ccc(S(N)(=O)=O)cc2)cc1OC value_unit=% reported=6.9
molecule="O=C1CSC(c2ccccc2)N1c1nc(-c2ccc(Cl)cc2Cl)cs1 (configuration not stated)" value_unit=% reported=10.5
molecule=CCn1c2ccccc2c2cc(NC(=O)C/C(C)=N/NC(=O)c3ccccc3N)ccc21 value_unit=% reported=4.8
molecule=COc1cccc(/C=N/NC(=O)C(=O)N2CCCC2)c1 value_unit=% reported=-4.3
molecule="Cc1c(Br)c([N+](=O)[O-])nn1C(C)C(=O)Nc1nccs1 (configuration not stated)" value_unit=% reported=-4.7
molecule=O=C(CN1C(=O)NC2(CCCC2)C1=O)Nc1ccc(F)c(F)c1F value_unit=% reported=-1.5
molecule="O=C(c1ccccc1)C(Cn1cncn1)C(Sc1ccccc1)c1ccccc1 (configuration not stated)" value_unit=% reported=-1.8
molecule=Cc1nnsc1S(=O)(=O)Cc1ccccc1Cl value_unit=% reported=4.8
molecule=Cc1ccc(-c2csc(N(Cc3ccco3)C(=O)c3cccs3)n2)cc1 value_unit=% reported=-9.9
molecule=C=CCNC(=O)c1sc(SC)cc1-c1ccc(Cl)cc1 value_unit=% reported=-13.7
molecule="CCC(C)n1c(-c2cc(OC)c(OC)c(OC)c2)nc2nc3ccccc3nc21 (configuration not stated)" value_unit=% reported=-0.7
